Assay: PK parameters in mice
Format: in vivo, male Swiss (CD-1) mice
Conditions: male, Swiss (CD-1), plasma; mouse, po 10 mg/kg; read-out: T1/2 po (converted)
quantityKind: half-life (h)
State just the number; it will be interpreted in h.

QUERY: Entry O=C(Nc1ccc(Cl)cc1)c1c(NC(=O)C2CCCCC2C(=O)O)sc2c1CCC2 (stereo not shown) has what half-life?
RESULT: 1.74

* * *

Tested on: influenza A H1N1 virus
Conditions: 0,823 µM peptide, 48 hr post-treatment, A549
# key: entry, value: Neuraminidase activity normalized to vehicle

Worked examples, 3 substances total:
[
  {
    "substance": "RQARRNRRR [CPEP110]",
    "assayResult": "1,0272"
  },
  {
    "substance": "SAIASGIAVS [CPEP72]",
    "assayResult": "1,0538"
  },
  {
    "substance": "CPEP61: peptide of the viral peptide library; sequence page not shown (KRRKSGAKRR)",
    "assayResult": "1,0166"
  }
]

QUERY: What Neuraminidase activity normalized to vehicle appears in the records for this substance with influenza A H1N1 virus? RKSASMS [CPEP82]
RESULT: 0,801

QUERY: Try this substance too: EALKKALRRHRFLWQRR [CPEP73]
RESULT: 1,11

QUERY: And then SVWIPVNEGASTSGM [CPEP77] , what is it?
RESULT: 0,7817

* * *

Assay: PK parameters in mice
Assay type: in vivo, male Swiss (CD-1) mice
Details: male, Swiss (CD-1), plasma; mouse, po 5 mg/kg, iv 0.5 mg/kg
quantityKind: bioavailability (%)
Form entry: value (%) — number only.

QUERY: Fill blank: measured bioavailability of the compound "COc1ccc(C(=O)Nc2sc3c(c2C(=O)O)CCC(C)(C)C3)cc1OC" is ____.
RESULT: 26

* * *

Listing of entries alongside the reported Neuraminidase activity normalized to vehicle.
Tested on: influenza A H1N1 virus
Settings: 200 µM peptide, 48 hr post-treatment, A549

[
  {
    "substance": "QILVESPTVLESGTKE [CPEP80]",
    "targetUnderTest": "influenza A H1N1 virus",
    "assayResult": "0,8685"
  },
  {
    "substance": "CPEP86: peptide of the viral peptide library; sequence page not shown (SGFGPLITHG)",
    "targetUnderTest": "influenza A H1N1 virus",
    "assayResult": "0,9563"
  },
  {
    "substance": "DKELYPLTSLRSLFG [CPEP65]",
    "targetUnderTest": "influenza A H1N1 virus",
    "assayResult": "0,356"
  },
  {
    "substance": "TGERDW [CPEP119]",
    "targetUnderTest": "influenza A H1N1 virus",
    "assayResult": "0,8047"
  },
  {
    "substance": "ELLSGLQEWL [CPEP85]",
    "targetUnderTest": "influenza A H1N1 virus",
    "assayResult": "0,9118"
  },
  {
    "substance": "DDLYEEV [CPEP111]",
    "targetUnderTest": "influenza A H1N1 virus",
    "assayResult": "0,7987"
  },
  {
    "substance": "PVQLSYYD [CPEP144]",
    "targetUnderTest": "influenza A H1N1 virus",
    "assayResult": "0,7318"
  },
  {
    "substance": "RHFPRIW [CPEP146]",
    "targetUnderTest": "influenza A H1N1 virus",
    "assayResult": "0,7481"
  },
  {
    "substance": "WRHRAR [CPEP113]",
    "targetUnderTest": "influenza A H1N1 virus",
    "assayResult": "0,9723"
  },
  {
    "substance": "WGCSGKLICTTTVPW [CPEP84]",
    "targetUnderTest": "influenza A H1N1 virus",
    "assayResult": "0,0819"
  }
]

QUERY: Query the reported Neuraminidase activity normalized to vehicle for influenza A H1N1 virus; item: SAIASGIAVS [CPEP72]
RESULT: 1,0607

QUERY: Try this substance too: EALKKALRRHRFLWQRR [CPEP73]
RESULT: 0,1338

QUERY: What do you have for CPEP135: peptide of the viral peptide library; sequence page not shown (KGHRGSHTMNGH) ?
RESULT: 0,865
